// data source = patent US20230158141A1

Answer each item with its documented Binding recovery (>60%).
Target: T1, IL-10R1-Fc (UniProt Q13651 22-235, limits assumed)
T1 sequence (looked up): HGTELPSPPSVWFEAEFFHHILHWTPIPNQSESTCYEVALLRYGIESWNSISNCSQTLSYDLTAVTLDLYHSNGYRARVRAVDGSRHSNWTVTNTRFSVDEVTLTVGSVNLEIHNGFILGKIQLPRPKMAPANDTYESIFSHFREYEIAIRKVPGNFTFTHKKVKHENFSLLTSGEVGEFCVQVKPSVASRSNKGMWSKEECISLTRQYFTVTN
Experiment: ELISA, IL-10R1-Fc coated
Numbers only, in %.

{"BINDER": "IL-10 Lys119Cys-R4-7 (ligand, human, UniProt P22301 19-178, looked up, R4-7 on Cys 119, mature) SPGQGTQSENSCTHFPGNLPNMLRDLRDAFSRVKTFFQMKDQLDNLLLKESLLEDFKGYLGCQALSEMIQFYLEEVMPQAENQDPDIKAHVNSLGENLKTLRLRLRRCHRFLPCENKSCAVEQVKNAFNKLQEKGIYKAMSEFDIFINYIEAYMTMKIRN", "TEST RESULT": 99}
{"BINDER": "IL-10 Ser8Cys-R4-5 (ligand, human, UniProt P22301 19-178, looked up, R4-5 on Cys 8, mature) SPGQGTQCENSCTHFPGNLPNMLRDLRDAFSRVKTFFQMKDQLDNLLLKESLLEDFKGYLGCQALSEMIQFYLEEVMPQAENQDPDIKAHVNSLGENLKTLRLRLRRCHRFLPCENKSKAVEQVKNAFNKLQEKGIYKAMSEFDIFINYIEAYMTMKIRN", "TEST RESULT": 100}
{"BINDER": "IL-10 Ser141Cys-R4-7 (ligand, human, UniProt P22301 19-178, looked up, R4-7 on Cys 141, mature) SPGQGTQSENSCTHFPGNLPNMLRDLRDAFSRVKTFFQMKDQLDNLLLKESLLEDFKGYLGCQALSEMIQFYLEEVMPQAENQDPDIKAHVNSLGENLKTLRLRLRRCHRFLPCENKSKAVEQVKNAFNKLQEKGIYKAMCEFDIFINYIEAYMTMKIRN", "TEST RESULT": 112}
{"BINDER": "IL-10 Val91Cys-R4-5 (ligand, human, UniProt P22301 19-178, looked up, R4-5 on Cys 91, mature) SPGQGTQSENSCTHFPGNLPNMLRDLRDAFSRVKTFFQMKDQLDNLLLKESLLEDFKGYLGCQALSEMIQFYLEEVMPQAENQDPDIKAHCNSLGENLKTLRLRLRRCHRFLPCENKSKAVEQVKNAFNKLQEKGIYKAMSEFDIFINYIEAYMTMKIRN", "TEST RESULT": 97.2}
{"BINDER": "IL-10 Asp144Cys-R4-11 (ligand, human, UniProt P22301 19-178, looked up, R4-11 on Cys 144, mature) SPGQGTQSENSCTHFPGNLPNMLRDLRDAFSRVKTFFQMKDQLDNLLLKESLLEDFKGYLGCQALSEMIQFYLEEVMPQAENQDPDIKAHVNSLGENLKTLRLRLRRCHRFLPCENKSKAVEQVKNAFNKLQEKGIYKAMSEFCIFINYIEAYMTMKIRN", "TEST RESULT": 90.5}

Below are some binders; for each one, tell me its Binding recovery (>60%).
1. IL-10 Thr35Cys-R4-6 (ligand, human, UniProt P22301 19-178, looked up, R4-6 on Cys 35, mature) SPGQGTQSENSCTHFPGNLPNMLRDLRDAFSRVKCFFQMKDQLDNLLLKESLLEDFKGYLGCQALSEMIQFYLEEVMPQAENQDPDIKAHVNSLGENLKTLRLRLRRCHRFLPCENKSKAVEQVKNAFNKLQEKGIYKAMSEFDIFINYIEAYMTMKIRN
2. IL-10 Gln38Cys-R4-19 (ligand, human, UniProt P22301 19-178, looked up, R4-19 on Cys 38, mature) SPGQGTQSENSCTHFPGNLPNMLRDLRDAFSRVKTFFCMKDQLDNLLLKESLLEDFKGYLGCQALSEMIQFYLEEVMPQAENQDPDIKAHVNSLGENLKTLRLRLRRCHRFLPCENKSKAVEQVKNAFNKLQEKGIYKAMSEFDIFINYIEAYMTMKIRN

[90.1, 87]
